# target.under.test: Neu5Ac(a2-3)Gal(b1-4)[Fuc(a1-3)]GlcNAc6S
# assay.text: glycan array binding signal (z-score within array); higher = stronger binding
# stated.conditions: glycan notation: IUPAC condensed, linker removed
Many of the other results were omitted from the sample, so the strongest signals are more common in it than they were.
measure: glycan array binding signal (z-score)

- RSVL (Crotalus atrox), P21963 (protein) NNCPLDWLPMNGLCYKIFNQLKTWEDAEMFCRKYKPGCHLASFHRYGESLEIAEYISDYHKGQENVWIGLRDKKKDFSWEWTDRSCTDYLTWDKNQPDHYQNKEFCVELVSLTGYRLWNDQVCESKDAFLCQCKF: -0.345
- Loc1 (Escherichia coli) (protein) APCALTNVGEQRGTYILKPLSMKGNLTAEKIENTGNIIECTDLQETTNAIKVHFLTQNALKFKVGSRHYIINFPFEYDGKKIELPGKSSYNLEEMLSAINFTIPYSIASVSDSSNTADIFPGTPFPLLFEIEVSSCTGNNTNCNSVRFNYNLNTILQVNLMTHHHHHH: 0.57
- GH98CBM51-1 (Streptococcus pneumoniae) (protein) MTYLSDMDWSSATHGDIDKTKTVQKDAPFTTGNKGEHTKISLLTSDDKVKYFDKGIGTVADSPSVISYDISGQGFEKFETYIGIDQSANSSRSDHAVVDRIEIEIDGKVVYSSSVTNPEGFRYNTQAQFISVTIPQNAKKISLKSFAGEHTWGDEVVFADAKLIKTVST: -0.182
